Target: bovine serum albumin (BSA) (Bos taurus, UniProt P02769)
Sequence (P02769 25-607): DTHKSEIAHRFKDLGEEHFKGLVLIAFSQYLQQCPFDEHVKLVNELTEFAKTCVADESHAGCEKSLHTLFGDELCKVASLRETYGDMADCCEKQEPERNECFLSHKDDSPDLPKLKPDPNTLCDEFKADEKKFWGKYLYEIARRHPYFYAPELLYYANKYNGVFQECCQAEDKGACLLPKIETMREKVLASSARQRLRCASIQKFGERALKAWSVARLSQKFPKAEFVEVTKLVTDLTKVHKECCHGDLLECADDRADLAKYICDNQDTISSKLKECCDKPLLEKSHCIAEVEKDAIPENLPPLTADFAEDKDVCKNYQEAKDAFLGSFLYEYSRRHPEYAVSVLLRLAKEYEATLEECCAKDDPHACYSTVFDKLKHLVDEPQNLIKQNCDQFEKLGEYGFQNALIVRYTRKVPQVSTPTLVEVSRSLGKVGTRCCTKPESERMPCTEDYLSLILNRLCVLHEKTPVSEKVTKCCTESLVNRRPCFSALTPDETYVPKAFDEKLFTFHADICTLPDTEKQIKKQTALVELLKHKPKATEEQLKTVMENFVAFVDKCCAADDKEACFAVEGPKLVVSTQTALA
Assay: BSA method (albumin denaturation)
readoutLabel: pIC50
Field pIC50 (float): negative decimal logarithm of the concentration in molar.

Log: bovine serum albumin (BSA) (Bos taurus, UniProt P02769), compound O[C@H]1CCN2Cc3ccccc3N=C12 , pIC50 = 3.56

Attribution: paper PMC10099809
